Could you please report measured inhibition for the items listed next?
Test: M. tuberculosis H37Rv growth inhibitors, H37Rv strain (AID 1626);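 note: bacteria incubated seven days before Alamar blue readout; 0% = bacteria only wells and 100% = bacteria with antibiotic wells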
Settings: active compounds read high, concentration not given here
Screen size: about 220,000 compounds; about 2,000 (0.91%) were called active. Inconclusive results (about 2%) are left out. The list is a sample of the results. Potency and affinity values are given separately.
Numbers only, in %.

Some solved cases for reference:
MOLECULE: O=C(Nc1ccc(Cl)c(Cl)c1)c1ccc(Cl)c(Cl)c1
READOUT UNITS: %
REPORTED: 2.4

MOLECULE: CCCCOc1ccc(-c2c(C#N)c(N)nc(SCC(N)=O)c2C#N)cc1
READOUT UNITS: %
REPORTED: -5.04

MOLECULE: CCCS/C(N)=N/N=C/c1ccccc1O
READOUT UNITS: %
REPORTED: 4.15

MOLECULE: CC(C)CCN1CCN(Cc2nc(-c3ccccc3)cs2)CC1CCO (stereo not given)
READOUT UNITS: %
REPORTED: 4.13

MOLECULE: CC(=O)Nc1sc2c(c1CN1CCN(C)CC1)CCCC2
READOUT UNITS: %
REPORTED: -1.53

For every listed record, write down its inhibition.
1. CC(C)OC(=O)CSc1nc(N)c(C#N)c(-c2ccco2)c1C#N
2. CCn1c(SCC(=O)Nc2nccs2)nnc1-c1ccccc1
3. N#C/C(=C/c1ccc(Br)s1)C(=O)NCCc1c[nH]c2ccccc12

Solution:
1: 53.1; 2: -4.51; 3: -14

For every listed record, write down its inhibition.
1. Cc1c(C(=O)N/N=C/c2ccc(N3CCOCC3)cc2)nc2ccccn12
2. CC(=O)Nc1sc2c(c1CN1CCCC1)CCCC2
3. NS(=O)(=O)c1ccc(NC=C2C(=O)OC3(CCCCC3)OC2=O)cc1
4. Cc1ccc(NC(=S)Nc2cccc(-c3n[nH]c(=S)o3)c2)cc1

Solution:
1. 3.49
2. -3.09
3. 4.66
4. 10.2

For every listed record, write down its inhibition.
1. O=C1OC2(CCCCC2)OC(=O)C1=CNc1ccc2c(c1)OCO2
2. c1cncc(-c2nc(-c3ccco3)cs2)c1
3. CCN1CCN(Cc2ccc(NC(=O)c3cc(NC(=O)c4ccno4)cc(OC)c3)cc2C(F)(F)F)CC1
4. CCOC(=O)CSc1ncc(-c2ccc([N+](=O)[O-])cc2)[nH]1

Solution:
[55.9, 2.43, 14.6, 47.4]
